target: Calcium and integrin-binding protein 1 (Homo sapiens); assay: Validation qHTS for Identification of Calcium Integrin Binding protein 1 (CIB1) Competitor (AID 1508618); conditions: CIB1-GST / FITC-alphaIIb peptide fluorescence polarization; series mostly up to 114 µM
Records with an inconclusive call do not appear. Calls of active or inactive are those of the source. Calls come from the whole dose curve; as a rule, active = well fitted curve in the direction sought with a large enough effect; inconclusive = small, poorly fitted or top-dose-only effect, or another doubt; inactive = no such curve, though single readings can be large or run the other way.
TEST READOUT: outcome

Solved cases (6 shown):
CCCN1CCC[C@@H](c2cccc(O)c2)C1: inactive
Clc1ccc(N2CC3CCC(C2)N3)nn1: inactive
CC(N)Cc1c[nH]c2ccc(OCc3cccs3)cc12 (configuration not stated): inactive
O=C1C=CC(=O)C=C1: inactive
Cc1o[nH]c(=O)c1CC(N)C(=O)O (configuration not stated): inactive
COc1ccc2c(c1O)-c1cccc3c1[C@@H](C2)N(C)CC3: inactive

Enquiry: What does the data say about its outcome? Entry: C[C@H](N)Cc1cccc(C(F)(F)F)c1
Return: inactive
